Ref: ChEMBL document CHEMBL3988442

Tested on: Mycobacterium tuberculosis
assay_overview: Cornell - Phenotypic assay to identify agents that inhibit growth of Mycobacterium tuberculosis
Format: functional
Set-up: scale not given: direction of the effect not stated beside the values
condition: 10 mM as filed; unlikely as a test dose
In all, about 53,000 compounds went through this assay and about 900 (1.7%) showed an effect of 50% or more. What follows is part of a selection rich in strong results, with near analogues and random picks from the rest.
Percent Effect reference
Supply the numeric figure in %, leaving out any unit text.

Please review the entries below; each comes with its answer.
INSERT INTO assay_data (compound, measure_name, value_observed) VALUES
  ('CC(C)(C)c1ncc(C(=O)NCCNC(=O)c2cccs2)s1', 'Percent Effect', -14.14),
  ('CC(C)CN1Cc2nc(N)ncc2C1=O', 'Percent Effect', 0.3963),
  ('Cc1nnc(N2CCCC3(CN(Cc4nccn4C)CCO3)C2)o1 (configuration not stated)', 'Percent Effect', -3.973);

Enquiry: Given the entry Nc1ncc2c(n1)CN(C1CCCC1)C2=O , report its measured Percent Effect.
Return: 100.2

Enquiry: Now give it for O=C(NCCNc1cc(-n2cccc2)ncn1)c1cccs1 too.
Return: 57.48
